# System Under Test: human cloned somatostatin receptor 3 (human) (UniProt P32745)
# Sequence (P32745 whole entry): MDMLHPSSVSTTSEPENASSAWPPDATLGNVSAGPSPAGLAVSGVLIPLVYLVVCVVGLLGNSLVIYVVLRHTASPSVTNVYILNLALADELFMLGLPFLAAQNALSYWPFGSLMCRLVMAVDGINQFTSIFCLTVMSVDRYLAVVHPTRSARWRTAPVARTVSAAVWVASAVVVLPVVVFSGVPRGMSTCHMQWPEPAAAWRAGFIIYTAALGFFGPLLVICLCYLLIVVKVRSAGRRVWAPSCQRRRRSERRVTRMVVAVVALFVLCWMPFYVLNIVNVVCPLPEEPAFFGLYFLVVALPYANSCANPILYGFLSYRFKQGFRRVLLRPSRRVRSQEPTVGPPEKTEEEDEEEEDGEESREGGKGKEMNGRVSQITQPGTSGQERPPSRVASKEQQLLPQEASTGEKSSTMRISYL
# Test Protocol: 125I-Tyr11-SRIF-14 displacement
pIC50: −log10 of the molar value. *1 amine or outer side, *2 acyl side, *3 side chain or, on linkers, in order; H or OH if unused. Bridges are numbered along the chain shown (N, C = ends). [ ]: non-standard residue; d: D form. The star is where a group is joined. DOTA = O=C(O)CN1CCN(CC(=O)O)CCN(CC(=O)*)CCN(CC(=O)O)CC1; N(2-mercaptoethyl)Gly = O=C(CN(CCS[*:3])[*:1])[*:2]
Quick reference: pIC50 of the listed items.
Reported Property: pIC50

[[record]]
binder = "{DOTA}-[dF]KCF[dW]KTF[N(2-mercaptoethyl)Gly]-NH2 (disulfide 3-9; SMILES C[C@@H](O)[C@@H]1NC(=O)[C@H](CCCCN)NC(=O)[C@@H](Cc2c[nH]c3ccccc23)NC(=O)[C@H](Cc2ccccc2)NC(=O)[C@@H](NC(=O)[C@H](CCCCN)NC(=O)[C@@H](Cc2ccccc2)NC(=O)CN2CCN(CC(=O)O)CCN(CC(=O)O)CCN(CC(=O)O)CC2)CSSCCN(CC(N)=O)C(=O)[C@H](Cc2ccccc2)NC1=O) [SEQ ID NO: 9]"
reading = 9.00

[[record]]
binder = "{DOTA}-[dF]RCF[dW]KTF[N(2-mercaptoethyl)Gly]-NH2 (disulfide 3-9; also: Lu complex of DOTA) [SEQ ID NO: 6]"
reading = 9.05

[[record]]
binder = "{DOTA}-[dF]RCF[dW]KTF[N(2-mercaptoethyl)Gly]-NH2 (disulfide 3-9; also: Cu complex of DOTA) [SEQ ID NO: 5]"
reading = 9.05

[[record]]
binder = "H-[dF]KCF[dW]KTF[N(2-mercaptoethyl)Gly]-NH2 (disulfide 3-9; SMILES C[C@@H](O)[C@@H]1NC(=O)[C@H](CCCCN)NC(=O)[C@@H](Cc2c[nH]c3ccccc23)NC(=O)[C@H](Cc2ccccc2)NC(=O)[C@@H](NC(=O)[C@H](CCCCN)NC(=O)[C@H](N)Cc2ccccc2)CSSCCN(CC(N)=O)C(=O)[C@H](Cc2ccccc2)NC1=O) [SEQ ID NO: 2]"
reading = 9.14

